# methodNotes: Luminescence activity assay of purified Gaussia luciferase mutants on coelenterazine
# Assay type: biochemical
# Set-up: key: ratio of mutant luminescence intensity to wild-type Gaussia luciferase
# recordedConditions: Substrate CTZ (Table 16)
Please respond with reported Activity of mutant relative to wild-type Gaussia luciferase without the signal peptide for every item in the list.

K66R P84A E102K A104G E110A L124M V138E: Gaussia luciferase mutant (protein, SIGNAL (1)..(17), Gaussia luciferase mutant) MGVKVLFALICIAVAEAKPTENNEDFNIVAVASNFATTDLDADRGKLPGKKLPLEVLKEMEANARRAGCTRGCLICLSHIKCTAKMKKFIPGRCHTYEGDKKSGQGGIGAAIVDIPEIPGFKDMEPMEQFIAQVDLCEDCTTGCLKGLANVQCSDLLKKWLPQRCATFASKIQGQVDKIKGAGGD: 1.073

Let us examine a further case.
input: Entry N27D V29Y A30G V31L A32V S33K A36D L40V: Gaussia luciferase mutant (protein, SIGNAL (1)..(17), Gaussia luciferase mutant) MGVKVLFALICIAVAEAKPTENNEDFDIYGLVKNFDTTDVDADRGKLPGKKLPLEVLKEMEANARKAGCTRGCLICLSHIKCTPKMKKFIPGRCHTYEGDKESAQGGIGEAIVDIPEIPGFKDLEPMEQFIAQVDLCVDCTTGCLKGLANVQCSDLLKKWLPQRCATFASKIQGQVDKIKGAGGD has what Activity of mutant relative to wild-type Gaussia luciferase without the signal peptide?
output: 0.146

Data origin: patent US20250066745A1
